# System: HeLa (human cervical carcinoma)
# protocol details: MTT antiproliferative/cytotoxicity assay, HeLa
# Type: cell-based
# condition label: mean of three independent determinations
Readings of IC50 for the listed compounds
measured property: IC50 (µM)

INSERT INTO measurements (compound, measured_property, quantitative_result) VALUES
  ('CC12CCC3c4ccc(O)cc4CCC3C1CCC2=NNC(N)=S (centres unmarked)', 'IC50', 34),
  ('CC(=O)Oc1ccc2c(c1)CCC1C2CCC2(C)C(=NNC(N)=S)CCC12 (centres unmarked)', 'IC50', 42);
